Listing: IC50 of selected compounds
TESTED_TARGET: human recombinant COX-2 (Homo sapiens, UniProt P35354)
Sequence (P35354 18-604): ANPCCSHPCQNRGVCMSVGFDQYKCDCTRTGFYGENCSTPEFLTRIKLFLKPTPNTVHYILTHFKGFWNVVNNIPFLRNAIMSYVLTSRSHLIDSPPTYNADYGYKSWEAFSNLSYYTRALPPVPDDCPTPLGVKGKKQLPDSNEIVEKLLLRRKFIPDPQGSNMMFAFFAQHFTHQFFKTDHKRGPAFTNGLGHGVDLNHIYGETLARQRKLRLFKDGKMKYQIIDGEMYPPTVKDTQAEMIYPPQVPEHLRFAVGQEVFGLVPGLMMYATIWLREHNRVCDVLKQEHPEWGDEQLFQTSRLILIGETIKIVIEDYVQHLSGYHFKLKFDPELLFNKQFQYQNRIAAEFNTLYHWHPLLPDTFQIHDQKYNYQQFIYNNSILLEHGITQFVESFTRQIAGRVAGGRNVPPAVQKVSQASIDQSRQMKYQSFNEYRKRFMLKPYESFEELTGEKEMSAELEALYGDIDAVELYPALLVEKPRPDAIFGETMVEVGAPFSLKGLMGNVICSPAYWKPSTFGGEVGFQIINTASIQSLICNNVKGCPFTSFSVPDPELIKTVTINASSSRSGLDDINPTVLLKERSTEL
PROCEDURE_SUMMARY: Colorimetric COX Inhibitor Screening Assay (Cayman), COX-2 inhibitory effect
Procedure: Cayman’s Colorimetric COX Inhibitor Screening Assay provides a convenient method for human recombinant COX-2 to screen isozyme-specific inhibitors. The assay measures the peroxidase component of COXs. The peroxidase activity is assayed colorimetrically by monitoring the appearance of oxidized N′,N,N,N′-tetramethyl-p-phenylenediamine (TMPD) at 590 nm. […]

{"COMPOUND": "C[C@H](C/C=C/C(C)(C)O)[C@H]1CC[C@@]2(C)[C@@H]3CC=C4[C@@H](CC[C@H](O)C4(C)C)[C@]3(C)CC[C@]12C", "RELATION_SYMBOL": ">", "IC50 (µM)": 100}
{"COMPOUND": "C[C@H](CCC(=O)O)[C@H]1CC[C@@]2(C)[C@@H]3CC=C4[C@@H](CC[C@H](O)C4(C)C)[C@]3(C)CC[C@]12C", "RELATION_SYMBOL": "=", "IC50 (µM)": 19.5}
{"COMPOUND": "C[C@H](C/C=C/C(C)(C)O)[C@H]1CC[C@@]2(C)[C@@H]3C[C@H]4O[C@@]45[C@@H](CC[C@H](O)C5(C)C)[C@]3(C)CC[C@]12C", "RELATION_SYMBOL": ">", "IC50 (µM)": 100}
{"COMPOUND": "C[C@H](CCCO)[C@H]1CC[C@@]2(C)[C@@H]3CC=C4[C@@H](CC[C@H](O)C4(C)C)[C@]3(C)CC[C@]12C", "RELATION_SYMBOL": "=", "IC50 (µM)": 3.98}
{"COMPOUND": "CC(C=CC(O)C(C)(C)O)C1CCC2(C)C3CC=C4C(CCC(O)C4(C)C)C3(C)CCC12C (stereo not drawn) [Compound 1, cucurbita-5, 22-diene-3β, 24S, 25-triol]", "RELATION_SYMBOL": ">", "IC50 (µM)": 100}
{"COMPOUND": "C=C(C)[C@@H](O)CC[C@@H](C)[C@@H]1CC[C@]2(C)[C@H]3CC[C@@]4(C)[C@@H](CCC(=O)[C@@H]4C)[C@]3(C)CC[C@@]12C", "RELATION_SYMBOL": ">", "IC50 (µM)": 100}
{"COMPOUND": "CC(CC=CC(C)(C)O)C1CCC2(C)C3CCC4(C)C(C)C(=O)CCC4C3(C)CCC12C (stereo not drawn) [Compound 7, 18R-D:A-friedoeuph-20-ene-22-ol-3-one]", "RELATION_SYMBOL": ">", "IC50 (µM)": 100}
{"COMPOUND": "C[C@H](CCO)[C@H]1CC[C@@]2(C)[C@@H]3CC=C4[C@@H](CC[C@H](O)C4(C)C)[C@]3(C)CC[C@]12C", "RELATION_SYMBOL": "=", "IC50 (µM)": 31}
{"COMPOUND": "C[C@H](CC[C@H](O)C(C)(C)O)[C@H]1CC[C@@]2(C)[C@@H]3CC=C4[C@@H](CC[C@H](O)C4(C)C)[C@]3(C)CC[C@]12C [Compound 2, cucurbita-5-ene-3β,24S,25-triol]", "RELATION_SYMBOL": "=", "IC50 (µM)": 18.9}

Where these numbers come from: paper PMC7046841
